Listed here are variants together with their documented protein stability index.
B1: GLTSCR2 (parent)
chain: YNPSFEDHQTLLSAAHEVELQRQK

variants of: B1; assay: protein stability index of a GFP-peptide fusion (GPS, HEK-293T) (PSI 1-6); higher = more stable; settings: c terminus: a fixed tail appended;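 note: lentivirally expressed fusions sorted by FACS into six bins by GFP to DsRed ratio, PSI derived from sequencing read proportions per bin multiplied by bin number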
Form rule: numeric answer, no unit written next to it.

Illustrative cases are given below, each with its answer.
L12Y | 3.63
L11F | 2.81
Q21K | 3.17
N2D | 5.66

Switching to the query record.
Record summary for Y1R : reported protein stability index = 5.37
